target: HIV-1 Env of pseudovirus CAP45 (HIV-1); experiment: cell-based or functional assay
endpointLabel: IC50, pseudovirus neutralization (TZM-bl assay)

Illustrative cases are given below, each with its answer.
binder | observedMeasurement
1469_M23 (PG16) (TCN-118) (antibody, V domains shown) VH: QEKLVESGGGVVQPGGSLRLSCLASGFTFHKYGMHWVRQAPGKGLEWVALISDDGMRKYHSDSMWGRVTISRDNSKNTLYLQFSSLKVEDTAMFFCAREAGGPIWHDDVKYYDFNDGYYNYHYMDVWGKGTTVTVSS VL: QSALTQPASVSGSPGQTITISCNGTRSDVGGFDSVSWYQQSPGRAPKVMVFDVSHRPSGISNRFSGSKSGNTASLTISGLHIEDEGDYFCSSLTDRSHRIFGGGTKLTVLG | < 0.01 µg/mL
1489_I13 (PG16) (TCN-120) (antibody, V domains shown) VH: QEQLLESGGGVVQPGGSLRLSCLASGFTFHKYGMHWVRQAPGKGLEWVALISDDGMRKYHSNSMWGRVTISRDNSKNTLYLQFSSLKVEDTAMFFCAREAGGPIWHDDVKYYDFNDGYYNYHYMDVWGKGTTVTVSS VL: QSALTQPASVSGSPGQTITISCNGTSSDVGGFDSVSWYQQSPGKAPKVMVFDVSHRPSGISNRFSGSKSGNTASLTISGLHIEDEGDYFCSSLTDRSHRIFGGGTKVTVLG | < 0.01 µg/mL

Proceed to the following item.
Supply reported IC50, pseudovirus neutralization (TZM-bl assay) belonging to this binder: 1456_A12 (PG16) (TCN-117) (antibody, V domains shown) VH: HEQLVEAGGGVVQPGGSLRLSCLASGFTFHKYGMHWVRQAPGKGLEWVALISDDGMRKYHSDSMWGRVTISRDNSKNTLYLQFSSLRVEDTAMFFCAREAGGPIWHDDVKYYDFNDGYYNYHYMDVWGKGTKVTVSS VL: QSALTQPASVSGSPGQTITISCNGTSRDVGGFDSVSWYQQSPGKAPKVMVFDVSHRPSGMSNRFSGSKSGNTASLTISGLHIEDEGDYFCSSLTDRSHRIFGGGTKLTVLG
< 0.01 µg/mL
